method: Cytotoxicity against human WM9 cells assessed as reduction in cell viability after 48 hrs by MTT assay
Format: functional, cell-based
test.conditions: Homo sapiens, WM9, 48 h
endpoint.name: IC50 (µM)
Give the number; µM is assumed, so skip it.

Recorded IC50 for COc1cc(NC(=O)NC(C)(C)C)c2cc1Oc1ccc(cc1)C[C@H]1c3cc(c(OC)cc3CCN1C)Oc1c(OC)c(OC)cc3c1[C@H](C2)N(C)CC3 , please?
5.37

Same question for C=C(C)C(=O)OCCNC(=O)Nc1cc(OC)c2cc1C[C@H]1c3c(cc(OC)c(OC)c3Oc3cc4c(cc3OC)CCN(C)[C@H]4Cc3ccc(cc3)O2)CCN1C please.
1.83

Entry COc1cc(NC(=O)Nc2ccc([N+](=O)[O-])cc2)c2cc1Oc1ccc(cc1)C[C@H]1c3cc(c(OC)cc3CCN1C)Oc1c(OC)c(OC)cc3c1[C@H](C2)N(C)CC3 please
4.65

For COc1cc(NC(=S)Nc2ccc(C)cc2)c2cc1Oc1ccc(cc1)C[C@H]1c3cc(c(OC)cc3CCN1C)Oc1c(OC)c(OC)cc3c1[C@H](C2)N(C)CC3 then?
5.52

Request: COc1cc(NC(=O)NC2CCCCC2)c2cc1Oc1ccc(cc1)C[C@H]1c3cc(c(OC)cc3CCN1C)Oc1c(OC)c(OC)cc3c1[C@H](C2)N(C)CC3
10.4

Please answer likewise for O=c1[nH]cc(F)c(=O)[nH]1
15.8

Consider next the compound COc1cc(NC(=O)Nc2ccc(OC(F)(F)F)cc2)c2cc1Oc1ccc(cc1)C[C@H]1c3cc(c(OC)cc3CCN1C)Oc1c(OC)c(OC)cc3c1[C@H](C2)N(C)CC3 in the same way.
3.91

COc1cc(NC(=S)NC(C)C)c2cc1Oc1ccc(cc1)C[C@H]1c3cc(c(OC)cc3CCN1C)Oc1c(OC)c(OC)cc3c1[C@H](C2)N(C)CC3 , same question.
3.63

Same lookup for COc1cc(NC(=O)Nc2cccc(C)c2)c2cc1Oc1ccc(cc1)C[C@H]1c3cc(c(OC)cc3CCN1C)Oc1c(OC)c(OC)cc3c1[C@H](C2)N(C)CC3 , please.
5.07

What about CNC(=S)Nc1cc(OC)c2cc1C[C@H]1c3c(cc(OC)c(OC)c3Oc3cc4c(cc3OC)CCN(C)[C@H]4Cc3ccc(cc3)O2)CCN1C ?
7.37

Follow-up item: COc1cc(NC(=S)Nc2ccc(Cl)cc2)c2cc1Oc1ccc(cc1)C[C@H]1c3cc(c(OC)cc3CCN1C)Oc1c(OC)c(OC)cc3c1[C@H](C2)N(C)CC3
6.93

Another compound: CCNC(=O)Nc1cc(OC)c2cc1C[C@H]1c3c(cc(OC)c(OC)c3Oc3cc4c(cc3OC)CCN(C)[C@H]4Cc3ccc(cc3)O2)CCN1C
2.31
